Test system: 598228-144-R-J1-PDC complex spheroids, viability;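 further: spheroids exposed to compounds for seven days before readout; 100% = DMSO vehicle control wells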
assayText: Anticancer human tumor 598228-144-R-J1-PDC patient-derived serous endometrial adenocarcinoma cell line growth inhibition [CLK]
measurementContext: second compound 1 µM; first compound 10 µM; stronger effect = lower value
propertyMeasured: viability, T/C (%)
Numbers only here, please. The scale is %.

Worked examples, 3 compounds total:
compound	viability, T/C [%]
CC1(C)CCC(CN2CCN(c3ccc(C(=O)NS(=O)(=O)c4ccc(NCC5CCOCC5)c([N+](=O)[O-])c4)c(Oc4cnc5[nH]ccc5c4)c3)CC2)=C(c2ccc(Cl)cc2)C1 + CNC(=O)c1ccc(Nc2nc(OC3CCCC3)c3c(-c4ccc5nc(C)oc5c4)c[nH]c3n2)c(OC)c1	22.8
CC1(C)CCC(CN2CCN(c3ccc(C(=O)NS(=O)(=O)c4ccc(NCC5CCOCC5)c([N+](=O)[O-])c4)c(Oc4cnc5[nH]ccc5c4)c3)CC2)=C(c2ccc(Cl)cc2)C1 + CN1CCN(c2cc(C(=O)Nc3cc4cc(-c5cnn(C)c5)ccc4cn3)ccn2)CC1	1.73
O=C(c1cc(Cc2n[nH]c(=O)c3ccccc23)ccc1F)N1CCN(C(=O)C2CC2)CC1 + CNC(=O)c1ccc(Nc2nc(OC3CCCC3)c3c(-c4ccc5nc(C)oc5c4)c[nH]c3n2)c(OC)c1	94

Turning now to a further record.
Report viability, T/C, nothing else, for this compound: CC(Nc1ccc2c(c1)OCCn1cc(N3C(=O)OCC3C(F)F)nc1-2)C(N)=O (configuration not stated) + CN1CCN(c2cc(C(=O)Nc3cc4cc(-c5cnn(C)c5)ccc4cn3)ccn2)CC1 0.42
